B1: OR4K15 (parent)
chain: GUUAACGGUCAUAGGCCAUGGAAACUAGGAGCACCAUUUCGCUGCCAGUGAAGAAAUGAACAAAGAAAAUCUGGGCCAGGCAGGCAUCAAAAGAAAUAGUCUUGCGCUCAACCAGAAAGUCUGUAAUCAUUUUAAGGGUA

# Variants of: B1
# Measurement Protocol: self-cleavage, relative activity (ratio to wild type); higher = more cleavage; in vitro, sequencing; the parent is a self-cleaving ribozyme
Hi, to clarify the labels: t covers self-cleavage from 1 upward, f covers anything below 1.

Reference set, count: 2
INSERT INTO assay_data (variant_spec, group_label) VALUES
  ('U49G U139G', 't'),
  ('A11U', 'f');

input: Is self-cleavage for A13U A114G at or above 1?
output: f

input: Answer whether self-cleavage of A36C A126G is greater than or equal to 1.
output: t

input: # check: self-cleavage of U38C U120A is greater than or equal to 1
output: t

input: Reported self-cleavage at or above 1? A18G A116U
output: f

input: For this variant, is measured self-cleavage 1 or higher? U87C A111C
output: f

input: Would you say U43C U97G shows self-cleavage at minimum 1?
output: t

input: Threshold query (self-cleavage >= 1) on C35U U43A
output: f

input: State whether the measured self-cleavage reaches 1, counting equality as reaching it, for A22G U127G
output: t
